Hello, the source for this data is the nanobody polyreactivity screen of Harvey et al. (2022), in case you need it.

assay: yeast display, Sf9 membrane polyspecificity reagent, FACS + sequencing; frameworks hold sequencing errors
quantity_measured: polyreactivity (PSR sort gate)

Use the examples below as a reference point.
- QVQLVESGGGLVQAGGSLRLSCAASGFIFHSYDMGWYRPAPRKERELVASISRGGGSTYYADSVKGRFTISRDNAMNTVYLQMNSLKPEDTAVYDCSARVYSLGYGGDYWGQGTQVTVSS: high polyreactivity
- QVHLVESGGGLVQAGGSLRLSCAASVFTFNSNAMGWYRQAPGKERELVAAISWSGGSTYYADSVKGRFTISRDNAKNTVYLLMNSLKPEDTAVYYCAKGYRRVYGPFYYWGQGTQLTVSS: low polyreactivity
- QVQLEESGGGLVQAGGSLRLSCAASGNIFYYYAMGWYRQAPGKEREVVATITSGGSTNYADSVKGRFTISRDNAKNTVYLQMNSLKPEDTAVYYCAADRRRTYYWLSSYFEGYYWGQGTQVTVSS: low polyreactivity
- QVQLGESGGGLVQAGGSLRLTCAASGIIFPYYAMGWYRQATGKERELVAGISSSGGITYADSVKGRFTISRDNGKNTVYLQMNSLKPEDTAVYYCNAEYQWLEYDYCGQGTQVTVSS: low polyreactivity

Input line: What value of measured polyreactivity (PSR sort gate) is listed for QVQLVESGGGLVQAGGSLRLSCAASGNTFVTYTMGWYRQAPGKERELVADISSGGSTYYADSVKGRFTISRDNAKNTVYLQMNSLKPEDTAVYYCAVQQAVFRSYYIYHRYYWGQGTQVTVSS ?
Output line: high polyreactivity
